experiment: Protein binding in mouse plasma
Type: ADME, cell-free
run parameters: read-out: PPB (converted)
quantity name: fraction unbound

Query :: Which fraction unbound reading was recorded for the compound Cc1cc(-c2ncc(CNC(=O)c3ccc4c(c3)[nH]c3ccccc34)cc2F)ccn1 ?
Result :: 0.007

====

experiment: Half life in ICR mouse at 2 mg/kg, iv by LC-MS/MS analysis
Format: ADME, organism-based
run parameters: in vivo
quantity name: half-life (h)
# output: bare number, implied unit h

Query :: Which half-life reading was recorded for the molecule Cc1cc(-c2ncc(CNC(=O)c3ccc4c(c3)[nH]c3ccccc34)cc2F)ccn1 ?
Result :: 1.1

====

experiment: Oral bioavailability in ICR mouse at 10 mg/kg administered via gavage by LC-MS/MS analysis
Assay type: ADME, organism-based
run parameters: in vivo
quantity name: bioavailability (%)
# output: bare number, implied unit %

Query :: Which bioavailability reading was recorded for the molecule Cc1cc(-c2ncc(CNC(=O)c3ccc4c(c3)[nH]c3ccccc34)cc2F)ccn1 ?
Result :: 49
